Below, each entry is listed alongside its reported melting point.
Note: unit °C is implicit; provide only the numeric part.

{"columns": ["COMPOUND", "melting point [°C]"],
 "data": [
  ["CCOC(=O)c1ccncc1", 23],
  ["C=C(C)c1ccccc1", -23.2],
  ["[N-]=[N+]=Nc1ccccc1", -27.5]
]}

INPUT: Using the record for C[C@]1(O)CC[C@H]2[C@@H]3CCC4=CC(=O)CC[C@]4(C)[C@@]3(F)[C@@H](O)C[C@@]21C , state its measured melting point.
OUTPUT: 270

INPUT: Using the record for ON=Cc1ccc(F)cc1 , state its measured melting point.
OUTPUT: 83.5

INPUT: Using the record for Cc1cc(N)ccc1Br , state its measured melting point.
OUTPUT: 81

INPUT: Using the record for Cc1ccc2nccc(C)c2c1 , state its measured melting point.
OUTPUT: 22

INPUT: Using the record for O=C(C(=O)c1cc(Br)ccc1O)c1cc(Br)ccc1O , state its measured melting point.
OUTPUT: 212

====

Below, each entry is listed alongside its reported melting point.
Note: unit °C is implicit; provide only the numeric part.

Here's what some known entries look like.
{"columns": ["COMPOUND_STRUCTURE", "UNIT_OF_MEASURE", "MEASURED_NUMBER"],
 "data": [
  ["COc1cccc(C(=O)O)c1O", "°C", 151],
  ["O=C(O)C(Cc1ccccc1)C(=O)O", "°C", 121],
  ["COc1cc(O)c(C=O)c(OC)c1", "°C", 70],
  ["CC[C@@H](C(=O)[C@@H](C)[C@@H](O)[C@H](C)[C@@H]1O[C@@H]([C@@H](CC)C(=O)O)CC[C@@H]1C)[C@H]1O[C@]2(C=C[C@@H](O)[C@]3(CC[C@@](C)([C@H]4CC[C@](O)(CC)[C@H](C)O4)O3)O2)[C@H](C)C[C@@H]1C", "°C", 113]
]}

Now take the following compound into account.
INPUT: Using the record for COC(=O)c1ccc(C(=O)OC)cc1 , state its measured melting point.
OUTPUT: 141

====

Below, each entry is listed alongside its reported melting point.
Note: unit °C is implicit; provide only the numeric part.

INPUT: Using the record for CCCCCCCCCCCCCCC(C)O (stereo not given) , state its measured melting point.
OUTPUT: 44

INPUT: Using the record for CCCCCCN1CC(C(=O)O)CC1=O (stereo not given) , state its measured melting point.
OUTPUT: 42.5

INPUT: Using the record for O=C(O)CCc1cc(I)c(Oc2ccc(O)c(I)c2)c(I)c1 , state its measured melting point.
OUTPUT: 200

INPUT: Using the record for C1CN1P1(N2CC2)=NP(N2CC2)(N2CC2)=NP(N2CC2)(N2CC2)=N1 , state its measured melting point.
OUTPUT: 148

INPUT: Using the record for C=COC(C)(C)C , state its measured melting point.
OUTPUT: -112

INPUT: Using the record for Cc1cc2ccccc2oc1=O , state its measured melting point.
OUTPUT: 91

INPUT: Using the record for O=c1ccc2ccccc2[nH]1 , state its measured melting point.
OUTPUT: 200

INPUT: Using the record for S=C(SSC(=S)N1CCCCC1)N1CCCCC1 , state its measured melting point.
OUTPUT: 138

INPUT: Using the record for CCc1cc(C)cc(O)c1 , state its measured melting point.
OUTPUT: 51.6

INPUT: Using the record for CCCCCCCCCCCC(CCCCCCCC)c1ccccc1 (stereo not given) , state its measured melting point.
OUTPUT: 17.9

INPUT: Using the record for CC(=O)c1ccc(Cl)cc1Cl , state its measured melting point.
OUTPUT: 33.5

INPUT: Using the record for CNCCO , state its measured melting point.
OUTPUT: -4.5

INPUT: Using the record for CCCCCCCCCCCCCCCCCCN , state its measured melting point.
OUTPUT: 52.9

INPUT: Using the record for CC(=O)N(C)c1ccccc1C , state its measured melting point.
OUTPUT: 55.5

====

READOUT_LABEL: melting point (°C)
Note: unit °C is implicit; provide only the numeric part.

Here's what some known entries look like.
{"columns": ["COMPOUND", "READOUT_LABEL", "UNIT_OF_MEASURE", "MEASURED_NUMBER"],
 "data": [
  ["O=C(OCC1CCC2OC2C1)C1CCC2OC2C1 (centres undefined)", "melting point", "°C", -37],
  ["CCCCCCCCCCCCCCCCCO", "melting point", "°C", 53.8],
  ["CNC(=O)Oc1ccc2c(c1)[C@]1(C)CCO[C@@H]1N2C", "melting point", "°C", 124],
  ["O=[N+]([O-])O[C@H]1CO[C@H]2[C@@H]1OC[C@H]2O[N+](=O)[O-]", "melting point", "°C", 70],
  ["Ic1cccc(I)c1I", "melting point", "°C", 116],
  ["CCOC(=O)c1ccccc1", "melting point", "°C", -34],
  ["CCCCCCCCOC(=O)CCCCC", "melting point", "°C", -28],
  ["CC1CCCC1=O (centres undefined)", "melting point", "°C", -75],
  ["CC(C)OC(=O)C1(S(=O)(=O)c2ccc(Cl)cc2)CC1", "melting point", "°C", 89.8],
  ["COc1cccc2c1C(=O)c1c(O)c3c(c(O)c1C2=O)C[C@@](O)(C(=O)CO)C[C@@H]3O[C@H]1C[C@H](N)[C@H](O)[C@H](C)O1", "melting point", "°C", 230]
]}

INPUT: Using the record for Cc1c(Cl)ccc(OC(C)C(O)=Nc2ccccc2)c1Cl (centres undefined) , state its measured melting point.
OUTPUT: 146

INPUT: Using the record for CC(C)(CC(=O)O)c1ccccc1 , state its measured melting point.
OUTPUT: 60

INPUT: Using the record for CCC(CO)(CO)COCC(CC)(CO)CO , state its measured melting point.
OUTPUT: 110

INPUT: Using the record for COc1ccccc1NC(=O)CC(C)=O , state its measured melting point.
OUTPUT: 86

INPUT: Using the record for CCCN(C(C)=O)c1ccccc1 , state its measured melting point.
OUTPUT: 49

INPUT: Using the record for COCC(=O)O , state its measured melting point.
OUTPUT: 7.7

INPUT: Using the record for NNC(=O)c1ccncc1 , state its measured melting point.
OUTPUT: 171

INPUT: Using the record for Cn1ccccc1=S , state its measured melting point.
OUTPUT: 89.5

INPUT: Using the record for C#CC(C)(C)NC(=O)c1cc(Cl)cc(Cl)c1 , state its measured melting point.
OUTPUT: 155

INPUT: Using the record for CCOc1ccc(CC(=O)O)cc1 , state its measured melting point.
OUTPUT: 88.5

INPUT: Using the record for CCCCCCCCCCCCCCCC(=O)OCCC , state its measured melting point.
OUTPUT: 20.4

INPUT: Using the record for Nc1cc(N)nc(N)n1 , state its measured melting point.
OUTPUT: 250

INPUT: Using the record for Oc1c(Br)cc(Br)cc1Br , state its measured melting point.
OUTPUT: 95.5

====

# EXPERIMENTAL_SETUP: fish
Below, each entry is listed alongside its reported log10 biotransformation half-life (days).
API doc: respond with a numeric literal and nothing else, no unit.

Here's what some known entries look like.
{"columns": ["COMPOUND_STRUCTURE", "log10 biotransformation half-life (days)"],
 "data": [
  ["COc1ccc(C)cc1N", -1],
  ["Brc1ccc(Oc2ccc(Br)cc2Br)c(Br)c1", 1.6],
  ["CC(C)(C)CC(C)(C)c1ccc(O)cc1", -0.04],
  ["Cc1ccc2ccccc2c1", 0.88],
  ["Clc1ccc(-c2cc(Cl)c(Cl)c(Cl)c2)cc1", 1.69],
  ["Clc1ccc(-c2c(Cl)cccc2Cl)cc1", 2.44]
]}

INPUT: Using the record for Brc1ccc(Br)cc1 , state its measured log10 biotransformation half-life (days).
OUTPUT: 0.31

====

Below, each entry is listed alongside its reported melting point.

INPUT: Using the record for Cc1ccccc1OC(=O)Oc1ccccc1C , state its measured melting point.
OUTPUT: 60 °C

INPUT: Using the record for C1CCC(CCCCC2CCCCC2)CC1 , state its measured melting point.
OUTPUT: 12 °C

INPUT: Using the record for COc1ccc(C(O)(c2cncnc2)C2CC2)cc1 (stereo not drawn) , state its measured melting point.
OUTPUT: 110 °C

====

Ranges used to classify log10 vapour pressure (mmHg): A: < -4; B: ≥ -4 and < -0.09; C: ≥ -0.09

Solved entries:
{"columns": ["COMPOUND", "LABEL_VALUE"],
 "data": [
  ["Clc1ccc(Oc2ccc(Cl)cc2Cl)cc1", "B"],
  ["CC1CO1 (stereo unspecified)", "C"],
  ["c1ccc(C2CO2)cc1 (stereo unspecified)", "B"],
  ["COCC(F)F", "C"],
  ["CCNc1nc(NC(C)C)nc(SC)n1", "A"]
]}

INPUT: Using the reported log10 vapour pressure (mmHg), which band applies to Clc1ccc2c(c1)Oc1c(Cl)c(Cl)c(Cl)c(Cl)c1O2 ?
OUTPUT: A

INPUT: Using the reported log10 vapour pressure (mmHg), which band applies to C#CCOC(=O)[C@@H](C)Oc1ccc(Oc2ncc(Cl)cc2F)cc1 ?
OUTPUT: A

INPUT: Using the reported log10 vapour pressure (mmHg), which band applies to CCOP(=O)(N=C1SCS1)OCC ?
OUTPUT: A

INPUT: Using the reported log10 vapour pressure (mmHg), which band applies to CCC(C)(C)CC ?
OUTPUT: C

INPUT: Using the reported log10 vapour pressure (mmHg), which band applies to CS ?
OUTPUT: C

INPUT: Using the reported log10 vapour pressure (mmHg), which band applies to CCF ?
OUTPUT: C

INPUT: Using the reported log10 vapour pressure (mmHg), which band applies to CC1(C)C2CC3OC3(C)C1C2 (stereo unspecified) ?
OUTPUT: C

INPUT: Using the reported log10 vapour pressure (mmHg), which band applies to N#Cc1cc(Br)c(O)c(Br)c1 ?
OUTPUT: A

INPUT: Using the reported log10 vapour pressure (mmHg), which band applies to CC(C)c1ccc(C(C)C)cc1 ?
OUTPUT: B

INPUT: Using the reported log10 vapour pressure (mmHg), which band applies to CCCCCCOCCOCCO ?
OUTPUT: B
